Reported inhibition of SARS-CoV-2 cytopathic effect values for a set of molecules
test system: Vero E6 infected with SARS-CoV-2; test: inhibition of SARS-CoV-2 cytopathic effect; higher = more antiviral protection, active = above 15; conditions: 8.33 nM; 48 h
A number alone suffices; assume %.

Example entries and their recorded answers appear below.
molecule="CC1=C(CC(=O)O)c2cc(F)ccc2/C1=C\\c1ccc([S+](C)[O-])cc1 (configuration not stated)" recorded_number=-2.82
molecule=c1ccc(-c2n[nH]c3c2oc2ccccc23)cc1 recorded_number=-5.74
molecule=N#Cc1cnc2cnc(NCc3cccnc3)cc2c1Nc1ccc(F)c(Cl)c1 recorded_number=1.05
molecule="NS(=O)(=O)c1cc2c(cc1Cl)NC(C(Cl)Cl)NS2(=O)=O (configuration not stated) [trichlormethiazide]" recorded_number=-5.19
molecule=CCS(=O)(=O)c1cccc(-c2cc(C(=O)NC3CCN(C)CC3)c(C)c3[nH]c4ncc(C)cc4c23)c1 recorded_number=0.63
molecule=C#C[C@]1(O)C=C[C@H]2[C@@H]3CCC4=CC(=O)CC[C@@H]4[C@H]3CC[C@@]21CC recorded_number=1.99

Kindly note: Vero E6 infected with SARS-CoV-2, Cc1ccc([N+](=O)[O-])cc1O , inhibition of SARS-CoV-2 cytopathic effect value reported: -2.93

Kindly note: Vero E6 infected with SARS-CoV-2, CN[C@@H]1[C@@H](O)[C@@H](O[C@@H]2[C@@H](O)[C@H](O[C@H]3OC(CN)=CC[C@H]3N)[C@@H](N)C[C@H]2N)OC[C@]1(C)O [Sisomicin (sulfate)] , inhibition of SARS-CoV-2 cytopathic effect value reported: 0.45

Kindly note: Vero E6 infected with SARS-CoV-2, N#CC(c1ccccc1)(c1ccccc1)c1ccccc1Cl , inhibition of SARS-CoV-2 cytopathic effect value reported: 1.23

Kindly note: Vero E6 infected with SARS-CoV-2, O=C(NCCCN1CCOCC1)c1cnn2c(-c3ccccc3)cc(-c3ccccc3)nc12 , inhibition of SARS-CoV-2 cytopathic effect value reported: 0.65

Kindly note: Vero E6 infected with SARS-CoV-2, CC(C)CCC[C@@H](C)[C@H]1CC[C@H]2[C@@H]3CCC4=CC(=NO)CC[C@]4(C)[C@H]3CC[C@]12C , inhibition of SARS-CoV-2 cytopathic effect value reported: 0.28

Kindly note: Vero E6 infected with SARS-CoV-2, CC(C)C[C@H](NC(=O)CNC(=O)c1cc(Cl)ccc1Cl)B1OC(=O)C(CC(=O)O)(CC(=O)O)O1 [ixazomib-citrate] , inhibition of SARS-CoV-2 cytopathic effect value reported: 1.34

* * *

Reported inhibition of SARS-CoV-2 cytopathic effect values for a set of compounds
test system: Vero E6 infected with SARS-CoV-2; experiment: inhibition of SARS-CoV-2 cytopathic effect; higher = more antiviral protection, active = above 15; conditions: 10000 nM; 48 h
A number alone suffices; assume %.

Example entries and their recorded answers appear below.
compound=C[C@@H](O)[C@H]1C(=O)N2C(C(=O)O)=C([C@H]3CCCO3)S[C@H]12 recorded_number=1.61
compound=C[C@@]1(F)[C@H](O)[C@@H](CO)O[C@H]1n1ccc(N)nc1=O recorded_number=0.26
compound=NCCCCCC(=O)O recorded_number=-2.29
compound="COc1cc([S+](C)[O-])ccc1-c1nc2cccnc2[nH]1 (configuration not stated)" recorded_number=-0.68

So for CCCN(CCC)S(=O)(=O)c1ccc(C(=O)O)cc1 , the logged inhibition of SARS-CoV-2 cytopathic effect turned out to be -2.19

So for CN1c2ccccc2C(=O)N2CCc3c([nH]c4ccccc34)C21 (stereo in doubt) , the logged inhibition of SARS-CoV-2 cytopathic effect turned out to be 2.33

So for O[C@@](Cc1nc(CC2(C(F)(F)F)CC2)c[nH]1)(c1ccc(-n2cccn2)cc1)C(F)(F)F , the logged inhibition of SARS-CoV-2 cytopathic effect turned out to be -2.55

So for N#Cc1ccc2[nH]c(O)c(-c3ccc(CN4CCOCC4)cn3)c2c1 , the logged inhibition of SARS-CoV-2 cytopathic effect turned out to be 11.4

So for Cc1ccc2c(c1)[C@H]1CN(C)CC[C@H]1N2 , the logged inhibition of SARS-CoV-2 cytopathic effect turned out to be -0.96

So for CN[C@@H]1[C@@H](O)[C@@H](O[C@@H]2[C@@H](O)[C@H](O[C@H]3O[C@H](CN)[C@@H](O)[C@H](O)[C@H]3O)[C@@H](N)C[C@H]2NC(=O)[C@@H](O)CN)OC[C@]1(C)O , the logged inhibition of SARS-CoV-2 cytopathic effect turned out to be -1.06

So for O=C(O)c1ccc2c(c1)C(=O)N(c1cccc(Oc3ccc([N+](=O)[O-])cc3)c1)C2=O , the logged inhibition of SARS-CoV-2 cytopathic effect turned out to be -0.65

So for COc1cc2c(cc1OC)-c1c(C)c3ccc(OC)c(OC)c3c[n+]1CC2 [dehydrocorydaline] , the logged inhibition of SARS-CoV-2 cytopathic effect turned out to be 0.05

So for C[C@H]1C[C@H]2[C@@H]3CCC4=CC(=O)C=C[C@]4(C)[C@@]3(Cl)[C@@H](O)C[C@]2(C)[C@@]1(O)C(=O)CO , the logged inhibition of SARS-CoV-2 cytopathic effect turned out to be -2.5

So for O=c1cc(-c2ccccc2)oc2cc(O)cc(O)c12 , the logged inhibition of SARS-CoV-2 cytopathic effect turned out to be -3.61

So for C/C(=C(\CCOP(=O)(O)O)SC(=O)c1ccccc1)N(C=O)Cc1cnc(C)nc1N , the logged inhibition of SARS-CoV-2 cytopathic effect turned out to be 0.69

So for CCCCc1nc(-c2ccc(OCCCN(CC)CC)cc2)cn1-c1ccc(Oc2ccc(Cl)cc2)cc1 , the logged inhibition of SARS-CoV-2 cytopathic effect turned out to be -13.2

So for CC(=O)N[C@H]1[C@H]([C@H](O)[C@H](O)CO)OC(O)(C(=O)O)C[C@@H]1O (mixture of isomers) , the logged inhibition of SARS-CoV-2 cytopathic effect turned out to be -0.15
